Tested on: angiogenesis genes in dermal microvascular endothelial cells
experimentDescription: Real time RT-PCR of angiogenesis gene expression during endothelial tube formation
Format: cell-based
testContext: 1 μM SM, 24 hours
Description: For gene expression studies, three independent experiments were run for each SM tested. […] Fluorescence was measured in every cycle and a melting curve was run after the PCR by increasing temperature from 50 to 96° C. […] The genes that were monitored were selected based on their relevance to the angiogenesis process. […]
We label by threshold. Values of Log2 fold-change of gene expression: PLG strictly beneath -2 are TRUE. Values of -2 and up are FALSE.

Solved cases below.
COc1cc2cc(c1Cl)N(C)C(=O)CC(OC(=O)C(C)C)C1(C)OC1C(C)C1CC(O)(NC(=O)O1)C(OC)/C=C/C=C(\C)C2 (stereo not drawn) [compound 292222]	FALSE
CCC(=O)OCN1C(=O)C=CC1=O [compound 19630]	TRUE
COC(=O)C1CC(=O)C(C(=O)OC)CC1=O (stereo not drawn) [Compound 122567]	FALSE
CC1CCN(CC[S-])CC1.O.O.[Cl][Pt+] [compound 292596]	FALSE

stdin: Consider O=C1C(=Cc2ccccc2)C(NC2CCCCC2)c2ccccc21 (stereo not drawn) [compound 150117] . Does its Log2 fold-change of gene expression: PLG lie strictly below -2?
stdout: TRUE

stdin: hey, is Log2 fold-change of gene expression: PLG for COc1ccc(CC2C(=O)NC(C)C(=O)N(C)C3Cc4ccc(cc4)Oc4cc(ccc4O)CC(C(=O)NC(C)C(=O)NC(C)C(=O)N2C)N(C)C3=O)cc1 (stereo not drawn) [compound 259969] lower than -2 or not?
stdout: FALSE
